Taken from ChEMBL document CHEMBL2203062.

# MEASURED_TARGET: Histone deacetylase 1 (Homo sapiens, UniProt Q13547)
# Sequence (Q13547 whole entry): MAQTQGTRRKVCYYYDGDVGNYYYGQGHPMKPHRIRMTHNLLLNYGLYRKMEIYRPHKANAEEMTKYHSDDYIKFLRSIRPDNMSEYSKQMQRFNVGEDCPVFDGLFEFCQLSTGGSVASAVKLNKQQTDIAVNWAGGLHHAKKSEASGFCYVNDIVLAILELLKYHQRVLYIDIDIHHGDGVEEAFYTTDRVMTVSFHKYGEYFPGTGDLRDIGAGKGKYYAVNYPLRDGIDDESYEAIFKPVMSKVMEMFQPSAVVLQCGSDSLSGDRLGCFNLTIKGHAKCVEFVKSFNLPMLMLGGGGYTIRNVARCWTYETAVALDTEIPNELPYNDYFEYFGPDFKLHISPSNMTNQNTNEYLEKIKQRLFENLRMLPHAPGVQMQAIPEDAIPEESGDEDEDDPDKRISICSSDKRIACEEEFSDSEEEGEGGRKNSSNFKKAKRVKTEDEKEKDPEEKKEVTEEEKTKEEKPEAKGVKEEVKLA

- MOLECULE: "CC(C)(C)C(CCCCC(=O)NO)CC(=O)Nc1ccccc1 (stereo unspecified)"
  IC50, nM: 990

----------
# MEASURED_TARGET: Histone deacetylase 3 (Homo sapiens, UniProt O15379)
# Sequence (O15379 whole entry): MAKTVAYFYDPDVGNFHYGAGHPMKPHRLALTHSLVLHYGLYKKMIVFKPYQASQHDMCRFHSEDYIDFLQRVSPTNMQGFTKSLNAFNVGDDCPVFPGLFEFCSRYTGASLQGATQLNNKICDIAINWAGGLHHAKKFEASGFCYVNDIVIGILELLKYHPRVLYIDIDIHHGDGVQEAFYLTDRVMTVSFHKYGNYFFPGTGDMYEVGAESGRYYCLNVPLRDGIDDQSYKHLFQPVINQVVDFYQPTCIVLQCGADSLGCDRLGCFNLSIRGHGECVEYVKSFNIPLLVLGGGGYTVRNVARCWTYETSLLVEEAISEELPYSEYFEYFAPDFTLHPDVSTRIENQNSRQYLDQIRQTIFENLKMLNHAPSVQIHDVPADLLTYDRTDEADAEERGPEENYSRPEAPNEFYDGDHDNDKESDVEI

- COMPOUND: "CC(C)(C)C(CCCCC(=O)NO)CC(=O)Nc1ccccc1 (stereo unspecified)"
  IC50: "5.4 µM"
